- testTarget: TDO in A172 cells (Homo sapiens)
- Construct: endogenous in cells; host or cells: A172 cells
- Sequence (P48775 whole entry): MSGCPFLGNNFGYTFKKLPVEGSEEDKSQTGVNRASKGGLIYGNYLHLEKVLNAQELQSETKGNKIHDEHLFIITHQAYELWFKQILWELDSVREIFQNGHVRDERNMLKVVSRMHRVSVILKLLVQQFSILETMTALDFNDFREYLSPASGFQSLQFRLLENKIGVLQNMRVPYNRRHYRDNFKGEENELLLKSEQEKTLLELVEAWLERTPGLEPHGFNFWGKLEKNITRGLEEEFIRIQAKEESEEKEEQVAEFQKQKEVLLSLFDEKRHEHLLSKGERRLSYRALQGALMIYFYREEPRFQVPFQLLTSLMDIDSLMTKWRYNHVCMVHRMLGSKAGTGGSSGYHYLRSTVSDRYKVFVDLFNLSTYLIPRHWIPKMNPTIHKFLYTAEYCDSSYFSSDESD
- measurementDescription: TDO cell-based assay, kynurenine production in A172 cells
- runConditions: A 172; final concentration of the compound 10 μM; rate relative to culture without compound
Counter-ions that a name gives are not always drawn.
What remaining activity at 10 µM was measured for each of the following?
Give bare numbers, in %.

Illustrative cases are given below, each with its answer.
{"compound": "Clc1ccc(Cl)c(CN2CN=C(SCc3ccccc3CSC3=NCN(Cc4cc(Cl)ccc4Cl)CN3)NC2)c1", "endpointName": "remaining activity at 10 µM", "outputUnit": "%", "numericResult": -1}
{"compound": "Fc1ccc(CSC2=NCN(CCc3ccc(C(F)(F)F)cc3)CN2)c(CSC2=NCN(CCc3ccc(C(F)(F)F)cc3)CN2)c1", "endpointName": "remaining activity at 10 µM", "outputUnit": "%", "numericResult": 9}
{"compound": "N=C(N)SCc1cc(Br)ccc1C(=O)NCc1ccc(C(F)(F)F)cc1 [Compound 114, hydrobromide]", "endpointName": "remaining activity at 10 µM", "outputUnit": "%", "numericResult": 37}

Below is a list of compounds. For each, state its recorded remaining activity at 10 µM.
1. Clc1cc(CSC2=NCN(CCc3ccccc3)CN2)c(CSC2=NCN(CCc3ccccc3)CN2)cc1Cl
2. N=C(N)SCc1cc(Br)ccc1C(=O)NCc1ccc(Cl)cc1Cl [Compound 89, hydrobromide]
3. CC(C)(C)c1ccc(CSC(=N)N)c(CSC(=N)N)c1 [Compound 4, dihydrobromide]
4. N=C(N)SCc1cc(Br)ccc1C(=O)NCc1ccc(Br)cc1 [Compound 97, hydrobromide]

Completion:
[-9, 51, 102, 37]

====

- testTarget: rhTDO (recombinant human TDO) (Homo sapiens, UniProt P48775)
- measurementDescription: Enzyme assay using rhTDO (rate of kynurenine production)
- Assay type: biochemical
- runConditions: 2 h; final concentration of the compound 10 μM; rate relative to reaction without compound; read-out: rhTDO-mediated kynurenine production
endpointName: remaining activity at 10 µM (%)
Give bare numbers, in %.

Below is a list of molecules. For each, state its recorded remaining activity at 10 µM.
1. FC(F)(F)c1ccc(CCN2CN=C(SCc3ccc(Br)cc3CSC3=NCN(CCc4ccc(C(F)(F)F)cc4)CN3)NC2)cc1
2. COc1ccc(CN2CN=C(SCc3ccccc3CSC3=NCN(Cc4ccc(OC)cc4OC)CN3)NC2)c(OC)c1

Completion:
[14, 56]

====

- testTarget: rhIDO (recombinant human IDO) (Homo sapiens, UniProt P14902)
- Sequence (P14902 whole entry): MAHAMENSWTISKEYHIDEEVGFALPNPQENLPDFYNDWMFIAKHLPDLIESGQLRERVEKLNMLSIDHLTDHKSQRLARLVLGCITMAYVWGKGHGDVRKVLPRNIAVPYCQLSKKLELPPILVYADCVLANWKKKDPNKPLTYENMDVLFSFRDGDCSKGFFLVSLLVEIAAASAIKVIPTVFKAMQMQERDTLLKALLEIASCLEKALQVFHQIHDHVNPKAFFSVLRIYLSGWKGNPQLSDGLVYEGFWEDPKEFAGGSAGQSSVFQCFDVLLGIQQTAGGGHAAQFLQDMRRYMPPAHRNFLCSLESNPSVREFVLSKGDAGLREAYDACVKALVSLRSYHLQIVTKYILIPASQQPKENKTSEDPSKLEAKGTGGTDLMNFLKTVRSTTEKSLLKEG
- measurementDescription: Enzyme assay using rhIDO (rate of kynurenine production)
- Format: biochemical
- runConditions: 2 h; final concentration of the compound 10 μM; rate relative to reaction without compound; read-out: rhIDO-mediated kynurenine production
Counter-ions that a name gives are not always drawn.
endpointName: remaining activity at 10 µM (%)
Give bare numbers, in %.

{"molecule": "FC(F)(F)c1ccc(CSC2=NCN(CCc3ccc(Cl)c(Cl)c3)CN2)c(CSC2=NCN(CCc3ccc(Cl)c(Cl)c3)CN2)c1 [Compound 47]", "numericResult": 16}
{"molecule": "N/C(=N\\c1ccc(F)cc1F)SCc1cc(Cl)c(Cl)cc1CS/C(N)=N/c1ccc(F)cc1F [Compound 63, dihydrobromide]", "numericResult": 0}
{"molecule": "Clc1ccc(CCN2CN=C(SCc3cc(Cl)c(Cl)cc3CSC3=NCN(CCc4ccc(Cl)c(Cl)c4)CN3)NC2)cc1Cl [Compound 38]", "numericResult": 16}

Below is a list of molecules. For each, state its recorded remaining activity at 10 µM.
1. N/C(=N\c1ccc(F)c(Cl)c1)SCc1ccc(F)cc1CS/C(N)=N/c1ccc(F)c(Cl)c1 [Compound 129, dihydrobromide]
2. N/C(=N\c1ccc(Br)cc1)SCc1ccc(Br)cc1CS/C(N)=N/c1ccc(Br)cc1 [Compound 49]

Completion:
1. -2
2. 1

Below is a list of molecules. For each, state its recorded remaining activity at 10 µM.
1. CNC(=O)c1ccc(C#N)cc1CSC(=N)N [Compound 77, hydrobromide]
2. N/C(=N\c1ccc(Cl)cc1)SCc1cc(F)c(F)cc1CS/C(N)=N/c1ccc(Cl)cc1 [Compound 132, dihydrobromide]

Completion:
74
-2

Data provenance is patent US12209079B2.
